Origin of measurements: patent US20030021776

- TARGET OR SYSTEM: T1, PDF 5A (VZ+590) (synthetic)
- T1 chain: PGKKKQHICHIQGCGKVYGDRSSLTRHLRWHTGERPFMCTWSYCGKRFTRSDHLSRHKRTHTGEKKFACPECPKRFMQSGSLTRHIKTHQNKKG
- EXPERIMENTAL DETAILS: EMSA; 170 mM KCl, 1.7 mM MgCl2, Zn
- RUN CONDITIONS: tags: MBP fusion (pMal-c2), SP1 backbone
pKd: −log10 of the molar value.

BINDER: VZ+590 target (dsDNA) DNA 1: GCAGGGGCCG DNA 2: CGGCCCCTGC
pKd: 9.64
